Origin of the recorded values: patent US10597674B2

System: E. coli cells expressing an HPPD polypeptide
Assay: Brown color bioassay in liquid culture, residual brown color formation (BCF), OD440 after 96 hours
Format: cell-based
Conditions: brown color formation with Cmpd. 1 (1000 μM) relative to without, after 96 hours

[
  {
    "molecule": "92 (protein, mutant HPPD polypeptide) MADLYENPMGLMGFEFIEFASPTPGTLEPIFEIMGFTKVATHRSKNVHLYRQGEINLILNNEPNSIASYFAAEHGPSVCGMAFRVKDSQKAYNRALELGAQPIHIDTGPMELNLPAIKGIGGAPLYLIDRFGEGSSIYDIDFVYLEGVERNPVGAGLKVIDHLTHNVYRGRMVYWANFYEKLFNFREARYFDIKGEYTGLTSKAMSAPDGMIRIPLNEESSKGAGQIEEFLMQFNGEGIQHVAFLTDDLVKTWDALKKIGMRFRTAPGDEYYEMLEGRLPDHGEPVDQLQARGILLDGSSVEGDKRLLLQIFSETLMGPVFFEFIQRKGHDGFGPDSFKVLFESAERDQVRRGVLTAD",
    "unit-info": "%",
    "Residual BCF OD440nm [%]": 59
  },
  {
    "molecule": "57 (protein, mutant HPPD polypeptide) MADLYENPMGLMGFEFIEFASPTPGTLEPIFEIMGFTKVATHRSKNVHLYRQGEINLILNNEPNSIASYFAAEHGPSVCGMAFRVKDSQKAYNRALELGAQPIHIDTGPMELNLPAIKGIGGAPLYLIDRFGEGSSIYDIDFVYLEGVERNPVGAGLKVIDHLTHNVYRGRMVYWANFYEKLFNFREARYFDIKGEYTGLTSKAMSAPDGMIRIPLNEESSKGAGQIEEFLMQFNGEGIQHVAFLTDDLVKTWDALKKIGMRFMTAPGDEYYEMLEGRLPDHGEPVDQLQARGILLDGSSVEGDKRLLLQIFSETLMGPVFFEFIQRKGDDGFGPDSFTVLFESVERDQVRRGVLTAD",
    "unit-info": "%",
    "Residual BCF OD440nm [%]": 46
  },
  {
    "molecule": "97 (protein, mutant HPPD polypeptide) MADLYENPMGLMGFEFIEFASPTPGTLEPIFEIMGFTKVATHRSKNVHLYRQGEINLILNNEPNSIASYFAAEHGPSVCGMAFRVKDSQKAYNRALELGAQPIHIDTGPMELNLPAIKGIGGAPLYLIDRFGEGSSIYDIDFVYLEGVERNPVGAGLKVIDHLTHNVYRGRMVYWANFYEKLFNFREARYFDIKGEYTGLTSKAMSAPDGMIRIPLNEESSKGAGQIEEFLMQFNGEGIQHVAFLTDDLVKTWDALKKIGMRFMTAPGDRYYEMLEGRLPDHGEPVDQLQARGILLDGSSVEGDKRLLLQIFSETLMGPVFFEFIQRKGHSGFGPDSFKVLFESKERDQVRRGVLTAD",
    "unit-info": "%",
    "Residual BCF OD440nm [%]": 49
  },
  {
    "molecule": "81 (protein, mutant HPPD polypeptide) MADLYENPMGLMGFEFIEFASPTPGTLEPIFEIMGFTKVATHRSKNVHLYRQGEINLILNNEPNSIASYFAAEHGPSVCGMAFRVKDSQKAYNRALELGAQPIHIDTGPMELNLPAIKGIGGAPLYLIDRFGEGSSIYDIDFVYLEGVERNPVGAGLKVIDHLTHNVYRGRMVYWANFYEKLFNFREARYFDIKGEYTGLTSKAMSAPDGMIRIPLNEESSKGAGQIEEFLMQFNGEGIQHVAFLTDDLVKTWDALKKIGMRFMTAPGDEYYEMLEGRLPDHGEPVDQLQARGILLDGSSVEGDKRLLLQIFSETLMGPVFFEFIQRKGDDGFGPDSFKALFESVERDQVRRGVLTAD",
    "unit-info": "%",
    "Residual BCF OD440nm [%]": 39
  },
  {
    "molecule": "59 (protein, mutant HPPD polypeptide) MADLYENPMGLMGFEFIEFASPTPGTLEPIFEIMGFTKVATHRSKNVHLYRQGEINLILNNEPNSIASYFAAEHGPSVCGMAFRVKDSQKAYNRALELGAQPIHIDTGPMELNLPAIKGIGGAPLYLIDRFGEGSSIYDIDFVYLEGVERNPVGAGLKVIDHLTHNVYRGRMVYWANFYEKLFNFREARYFDIKGEYTGLTSKAMSAPDGMIRIPLNEESSKGAGQIEEFLMQFNGEGIQHVAFLTDDLVKTWDALKKIGMRFMTAPGDEYYEMLEGRLPDHGEPVDQLQARGILLDGSSVEGDKRLLLQIFSETLMGPVFFEFIQRKGDDGFGPDSFKVLFERVERDQVRRGVLTAD",
    "unit-info": "%",
    "Residual BCF OD440nm [%]": 51
  },
  {
    "molecule": "77 (protein, mutant HPPD polypeptide) MADLYENPMGLMGFEFIEFASPTPGTLEPIFEIMGFTKVATHRSKNVHLYRQGEINLILNNEPNSIASYFAAEHGPSVCGMAFRVKDSQKAYNRALELGAQPIHIDTGPMELNLPAIKGIGGAPLYLIDRFGEGSSIYDIDFVYLEGVERNPVGAGLKVIDHLTHNVYRGRMVYWANFYEKLFNFREARYFDIKGEYTGLTSKAMSAPDGMIRIPLNEESSKGAGQIEEFLMQFNGEGIQHVAFLTDDLVKTWDALKKIGMRFMTAPGDSYYEMLEGRLPDHGEPVDQLQARGILLDGSSVEGDKRLLLQIFSETLMGPVFFEFIQRKGDDGFGPDSFKVLFESVERDQVRRGVLTAD",
    "unit-info": "%",
    "Residual BCF OD440nm [%]": 67
  },
  {
    "molecule": "83 (protein, mutant HPPD polypeptide) MADLYENPMGLMGFEFIEFASPTPGTLEPIFEIMGFTKVATHRSKNVHLYRQGEINLILNNEPNSIASYFAAEHGPSVCGMAFRVKDSQKAYNRALELGAQPIHIDTGPMELNLPAIKGIGGAPLYLIDRFGEGSSIYDIDFVYLEGVERNPVGAGLKVIDHLTHNVYRGRMVYWANFYEKLFNFREARYFDIKGEYTGLTSKAMSAPDGMIRIPLNEESSKGAGQIEEFLMQFNGEGIQHVAFLTDDLVKTWDALKKIGMRFMTAPGDEYYEMLEGRLPDHGEPVDQLQARGILLDGSSVEGDKRLLLQIFSETLMGPVFFEFIQRKGDDGFGPDSFKGLFESVERDQVRRGVLTAD",
    "unit-info": "%",
    "Residual BCF OD440nm [%]": 47
  }
]
